Data credit: patent US11591323B2

- Target of assay: M2 muscarinic receptor (Homo sapiens)
- Method description: inhibition of forskolin-stimulated cAMP, M2 CHO cells (M2Gi)
- Format: cell-based
- Design: host or cells: CHO cells, stably transfected
- Setup conditions: CHO; M2 (↓cAMP), preferential response, Table 7; read-out: E′MAX

{"Compound": "C1=CCN(Cc2cccs2)CC1.Cl", "Emax": "50%"}
{"Compound": "Brc1ccc(CN2CC=CCC2)s1.Cl", "Emax": "24%"}
{"Compound": "Cc1ccc(CN2CC=CCC2)s1.Cl", "Emax": "47%"}
{"Compound": "C[N+]1(Cc2cccs2)CC=CCC1.[I-] (centres unmarked)", "Emax": "53%"}
{"Compound": "Cc1ccc(C[N+]2(C)CC=CCC2)s1.[I-] (centres unmarked)", "Emax": "36%"}

###

- Target of assay: M2 muscarinic receptor (Homo sapiens, UniProt P08172)
- Method description: stimulation of cAMP, M2 CHO cells (M2Gs)
- Assay type: cell-based
- Set-up: host or cells: CHO cells, stably transfected
Quantity measured: EC50 (µM)

{"Compound": "O=C1CCCN1CC#CCN1CCCC1 [oxotremorine, reference compound]", "Quantity measured": "EC50", "Measurement units": "µM", "Recorded value": 1.15}

###

Kd overview
- Target of assay: M2 muscarinic receptor (Homo sapiens, UniProt P08172)
- Method description: inhibition of forskolin-stimulated cAMP, M2 CHO cells (M2Gi)
- Format: cell-based
- Design: host or cells: CHO cells, stably transfected
- Setup conditions: M2 (↓cAMP), preferential response, Table 7; operational model; read-out: pKA (converted)
Quantity measured: Kd (nM)

{"Compound": "Brc1ccc(CN2CC=CCC2)s1.Cl", "Target of assay": "M2 muscarinic receptor (Homo sapiens, UniProt P08172)", "Recorded value": 3160}
{"Compound": "Cc1ccc(CN2CC=CCC2)s1.Cl", "Target of assay": "M2 muscarinic receptor (Homo sapiens, UniProt P08172)", "Recorded value": 20000}
{"Compound": "Cc1ccc(C[N+]2(C)CC=CCC2)s1.[I-] (stereo not drawn)", "Target of assay": "M2 muscarinic receptor (Homo sapiens, UniProt P08172)", "Recorded value": 1580}
{"Compound": "C[N+]1(Cc2ccc(Br)s2)CC=CCC1.[I-] (stereo not drawn)", "Target of assay": "M2 muscarinic receptor (Homo sapiens, UniProt P08172)", "Recorded value": 3160}
{"Compound": "C[N+]1(Cc2cccs2)CC=CCC1.[I-] (stereo not drawn)", "Target of assay": "M2 muscarinic receptor (Homo sapiens, UniProt P08172)", "Recorded value": 1000}
{"Compound": "C1=CCN(Cc2cccs2)CC1.Cl", "Target of assay": "M2 muscarinic receptor (Homo sapiens, UniProt P08172)", "Recorded value": 1580}

###

The entries below come with measured EC50 values attached.
- Target of assay: UniProt P08172
- Method description: inhibition of forskolin-stimulated cAMP, M2 CHO cells (M2Gi)
- Type: cell-based
- Set-up: host or cells: CHO cells, stably transfected
Quantity measured: EC50 (nM)

{"Compound": "O=C1CCCN1CC#CCN1CCCC1 [oxotremorine, reference compound]", "Target of assay": "UniProt P08172", "Quantity measured": "EC50", "Recorded value": 5.75}
{"Compound": "C[N+]1(Cc2ccc(Cl)s2)CC=CCC1.[I-] (centres unmarked) [Compound 7D]", "Target of assay": "UniProt P08172", "Quantity measured": "EC50", "Recorded value": 3890}

###

- Target of assay: M2 muscarinic receptor (Homo sapiens)
- Sequence (P08172 1-466): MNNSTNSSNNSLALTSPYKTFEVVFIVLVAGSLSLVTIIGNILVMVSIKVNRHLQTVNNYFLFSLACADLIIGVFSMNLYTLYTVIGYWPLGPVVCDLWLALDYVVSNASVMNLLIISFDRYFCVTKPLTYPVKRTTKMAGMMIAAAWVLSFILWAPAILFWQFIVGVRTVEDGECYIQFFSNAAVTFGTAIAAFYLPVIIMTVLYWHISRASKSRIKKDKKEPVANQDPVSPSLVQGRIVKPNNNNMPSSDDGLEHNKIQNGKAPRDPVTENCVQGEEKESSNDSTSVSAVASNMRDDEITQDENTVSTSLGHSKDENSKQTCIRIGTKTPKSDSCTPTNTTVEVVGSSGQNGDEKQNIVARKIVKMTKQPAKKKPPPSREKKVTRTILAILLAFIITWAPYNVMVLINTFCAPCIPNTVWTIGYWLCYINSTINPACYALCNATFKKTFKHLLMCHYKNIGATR
- Method description: inhibition of forskolin-stimulated cAMP, M2 CHO cells (M2Gi)
- Type: cell-based
- Parameters: host or cells: CHO cells, stably transfected
- Setup conditions: M2Gi (↓cAMP), Table 8, to carbachol
# key: entry, value: Δlog(τ/KA)
Quantity measured: Δlog(τ/KA)

{"Compound": "C1=CCN(Cc2cccs2)CC1.Cl", "Quantity measured": "Δlog(τ/KA)", "Recorded value": "1.22 ± 0.08"}
{"Compound": "C[N+]1(Cc2cccs2)CC=CCC1.[I-] (stereo not shown)", "Quantity measured": "Δlog(τ/KA)", "Recorded value": "0.93 ± 0.09"}
{"Compound": "O=C1CCCN1CC#CCN1CCCC1 [oxotremorine, reference compound]", "Quantity measured": "Δlog(τ/KA)", "Recorded value": "−0.81 ± 0.01"}
{"Compound": "C[N+](C)(C)CCOC(N)=O [carbachol, reference compound]", "Quantity measured": "Δlog(τ/KA)", "Recorded value": 0}

###

- Target of assay: M4 muscarinic receptor (Homo sapiens)
- Sequence (P08173 whole entry): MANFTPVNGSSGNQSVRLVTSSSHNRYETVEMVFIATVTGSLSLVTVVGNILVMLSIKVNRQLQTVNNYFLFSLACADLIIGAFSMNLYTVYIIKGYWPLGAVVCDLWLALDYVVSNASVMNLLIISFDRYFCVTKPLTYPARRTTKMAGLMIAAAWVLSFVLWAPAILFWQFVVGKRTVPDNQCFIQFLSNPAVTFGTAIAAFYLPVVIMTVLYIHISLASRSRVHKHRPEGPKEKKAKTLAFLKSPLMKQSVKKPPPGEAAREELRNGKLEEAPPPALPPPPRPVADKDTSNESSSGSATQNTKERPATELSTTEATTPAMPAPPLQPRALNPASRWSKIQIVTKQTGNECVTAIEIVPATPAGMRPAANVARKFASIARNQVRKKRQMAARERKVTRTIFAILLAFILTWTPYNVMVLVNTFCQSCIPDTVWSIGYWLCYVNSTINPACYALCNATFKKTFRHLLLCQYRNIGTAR
- Method description: stimulation of cAMP, M4 CHO cells (M4Gs)
- Format: cell-based
- Parameters: host or cells: CHO cells, stably transfected

{"Compound": "O=C1CCCN1CC#CCN1CCCC1 [oxotremorine, reference compound]", "Target of assay": "M4 muscarinic receptor (Homo sapiens)", "Measurement units": "µM", "Kd": 6.31}

###

- Target of assay: M3 muscarinic receptor (Homo sapiens, UniProt P20309)
- Sequence (P20309 whole entry): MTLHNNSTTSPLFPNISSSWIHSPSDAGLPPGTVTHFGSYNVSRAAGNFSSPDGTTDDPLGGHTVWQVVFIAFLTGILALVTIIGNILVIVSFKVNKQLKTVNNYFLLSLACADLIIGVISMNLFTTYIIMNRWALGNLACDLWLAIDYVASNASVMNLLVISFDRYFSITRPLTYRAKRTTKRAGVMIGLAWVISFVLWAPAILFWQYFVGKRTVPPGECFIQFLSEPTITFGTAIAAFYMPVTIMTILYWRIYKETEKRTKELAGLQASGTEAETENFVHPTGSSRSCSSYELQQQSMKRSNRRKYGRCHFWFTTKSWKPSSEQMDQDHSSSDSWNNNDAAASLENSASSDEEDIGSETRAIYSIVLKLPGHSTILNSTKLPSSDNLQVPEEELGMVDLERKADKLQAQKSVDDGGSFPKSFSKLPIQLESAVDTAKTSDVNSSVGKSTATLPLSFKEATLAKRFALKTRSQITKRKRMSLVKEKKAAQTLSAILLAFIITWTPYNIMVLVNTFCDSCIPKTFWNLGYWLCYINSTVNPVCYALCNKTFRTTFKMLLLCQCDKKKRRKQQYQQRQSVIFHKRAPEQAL
- Method description: stimulation of cAMP, M3 CHO cells (M3Gs)
- Format: cell-based
- Design: host or cells: CHO cells, stably transfected
pEC50: −log10 of the molar value.
Quantity measured: pEC50

{"Molecule": "O=C1CCCN1CC#CCN1CCCC1 [oxotremorine, reference compound]", "Quantity measured": "pEC50", "Recorded value": 5.58}

###

- Target of assay: M2 muscarinic receptor (Homo sapiens, UniProt P08172)
- Method description: accumulation of IPX, M2 CHO cells (M2Gq)
- Format: cell-based
- Set-up: host or cells: CHO cells, stably transfected

{"Compound": "O=C1CCCN1CC#CCN1CCCC1 [oxotremorine, reference compound]", "EC50 (nM)": 209}

###

- Target of assay: UniProt:P08172
- Method description: inhibition of forskolin-stimulated cAMP, M2 CHO cells (M2Gi)
- Type: cell-based
- Set-up: host or cells: CHO cells, stably transfected
- Setup conditions: M2 (↓cAMP), preferential response, relative to carbachol; Tables 2, 3, 7
In this section we review reported RAi values for a set of molecules.

{"Molecule": "C[N+]1(Cc2ccc(Cl)s2)CC=CCC1.[I-] (stereo not shown) [Compound 7D]", "Target of assay": "UniProt:P08172", "RAi": 0.008}
{"Molecule": "Cc1ccc(C[N+]2(C)CC=CCC2)s1.[I-] (stereo not shown) [Compound 7B]", "Target of assay": "UniProt:P08172", "RAi": 0.029}
{"Molecule": "C[N+]1(Cc2ccc(Br)s2)CC=CCC1.[I-] (stereo not shown) [Compound 7C]", "Target of assay": "UniProt:P08172", "RAi": 0.018}
{"Molecule": "Brc1ccc(CN2CC=CCC2)s1.Cl [Compound 6C]", "Target of assay": "UniProt:P08172", "RAi": 0.0070}
{"Molecule": "Cc1csc(CN2CC=CCC2)c1.Cl [Compound 6E]", "Target of assay": "UniProt:P08172", "RAi": 0}
{"Molecule": "Cc1ccc(CN2CC=CCC2)s1.Cl [Compound 6B]", "Target of assay": "UniProt:P08172", "RAi": 0.0047}
{"Molecule": "O=C1CCCN1CC#CCN1CCCC1 [oxotremorine, reference compound]", "Target of assay": "UniProt:P08172", "RAi": 6.34}

###

- Target of assay: M5 muscarinic receptor (Homo sapiens, UniProt P08912)
- Sequence (P08912 whole entry): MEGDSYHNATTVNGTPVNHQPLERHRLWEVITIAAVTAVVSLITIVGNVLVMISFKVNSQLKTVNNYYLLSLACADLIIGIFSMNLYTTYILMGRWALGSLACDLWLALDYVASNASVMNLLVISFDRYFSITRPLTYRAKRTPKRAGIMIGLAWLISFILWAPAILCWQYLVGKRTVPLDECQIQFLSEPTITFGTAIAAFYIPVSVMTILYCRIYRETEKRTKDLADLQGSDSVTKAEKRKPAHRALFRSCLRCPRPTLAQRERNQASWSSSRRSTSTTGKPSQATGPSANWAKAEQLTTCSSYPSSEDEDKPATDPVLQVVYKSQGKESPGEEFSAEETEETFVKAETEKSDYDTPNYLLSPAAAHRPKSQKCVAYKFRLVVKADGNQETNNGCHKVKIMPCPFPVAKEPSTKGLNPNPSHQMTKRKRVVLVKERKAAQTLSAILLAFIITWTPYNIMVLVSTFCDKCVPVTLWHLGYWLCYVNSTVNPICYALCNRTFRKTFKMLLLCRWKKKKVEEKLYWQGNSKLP
- Method description: [3H]NMS competition binding, M5 CHO membranes
- Parameters: host or cells: CHO cells, stably transfected
- Setup conditions: Inhibition constants (KI) as negative logarithms, M5, low site, reference agonists, low affinity site
pKi: −log10 of the molar value.
Quantity measured: pKi

{"Compound": "O=C1CCCN1CC#CCN1CCCC1 [oxotremorine, reference compound]", "Quantity measured": "pKi", "Recorded value": 6.27}
